# experimentalSystem: CYP2C9 relative to CYP2A6 (Homo sapiens (Human), UniProt P11712)
# Sequence (P11712 whole entry): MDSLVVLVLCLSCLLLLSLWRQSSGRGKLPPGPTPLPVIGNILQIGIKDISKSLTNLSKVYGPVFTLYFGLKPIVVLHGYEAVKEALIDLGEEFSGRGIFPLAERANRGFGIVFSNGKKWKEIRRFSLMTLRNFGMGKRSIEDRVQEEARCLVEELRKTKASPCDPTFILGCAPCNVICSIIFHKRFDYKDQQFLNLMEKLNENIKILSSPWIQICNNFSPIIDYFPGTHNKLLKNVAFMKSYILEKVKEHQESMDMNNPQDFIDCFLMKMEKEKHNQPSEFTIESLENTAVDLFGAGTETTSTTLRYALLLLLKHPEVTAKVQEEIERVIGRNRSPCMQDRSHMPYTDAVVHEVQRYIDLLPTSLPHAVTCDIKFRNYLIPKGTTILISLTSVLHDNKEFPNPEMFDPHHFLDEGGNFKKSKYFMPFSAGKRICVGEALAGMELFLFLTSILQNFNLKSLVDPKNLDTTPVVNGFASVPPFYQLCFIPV
# assayText: CYP2C9 Vivid blue substrate O-dealkylation inhibition
# Format: biochemical
# conditionParameters: recombinant CYP2C9 BACULOSOMES, pH 8, probe Vivid blue substrate (10 μM), O-dealkylation; human CYP2C9 versus human CYP2A6; read-out: Selectivity ratio (IC50 CYPX/IC50 CYP2A6) 2C9/2A6
Quick reference for selectivity ratio at 40 min among some compounds
Answer field: number only, no words.

>>> testvalue("c1ccc(Cn2cnc(-c3cccnc3)c2)cc1")
19

Consider the additional compound presented here.
I looked up `Nc1ccc(-c2cccnc2)s1` and its selectivity ratio at 40 min for CYP2C9 relative to CYP2A6 (Homo sapiens (Human), UniProt P11712) was 0.6
